- Test target: human UGT1A1 (Homo sapiens)
- Sequence (P22309 26-533): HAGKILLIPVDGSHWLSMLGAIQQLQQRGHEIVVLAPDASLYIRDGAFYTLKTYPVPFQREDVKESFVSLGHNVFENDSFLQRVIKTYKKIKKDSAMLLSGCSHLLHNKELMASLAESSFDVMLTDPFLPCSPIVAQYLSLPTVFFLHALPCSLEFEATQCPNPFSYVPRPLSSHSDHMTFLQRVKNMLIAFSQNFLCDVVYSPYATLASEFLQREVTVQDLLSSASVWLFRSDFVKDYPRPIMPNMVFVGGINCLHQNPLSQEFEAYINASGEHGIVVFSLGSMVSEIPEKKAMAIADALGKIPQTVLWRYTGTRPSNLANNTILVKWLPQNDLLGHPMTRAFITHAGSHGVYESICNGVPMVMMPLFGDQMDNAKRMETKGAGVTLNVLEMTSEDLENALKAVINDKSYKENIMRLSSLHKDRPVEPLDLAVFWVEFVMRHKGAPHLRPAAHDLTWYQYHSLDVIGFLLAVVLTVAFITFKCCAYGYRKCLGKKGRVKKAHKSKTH
- Protocol details: Mutual glucuronidation inhibition
- Format: biochemical
- Condition info: Ki (inhibition of glucuronidation of 7HF), substrate 7HF; mixed-type inhibition
Outcome measure: pKi
// field semantics: pKi = negative decimal log of concentration (mol/L)

Reported pKi for O=c1c(O)c(-c2ccc(O)cc2)oc2cc(O)ccc12 [3,7,4′THF, 3,7,4′-trihydroxyflavone] was 5.89

This collection of values is drawn from paper PMC3953455.
